Just for reference, the supplement of paper PMC4862054 is where these values come from.

Let's look at some compounds and their measured EC50, CellTiter-Glo.
Test system: CAL-85-1
STATED_CONDITIONS: 72 h
Respond numerically; units are nM and should not be typed.

> print(dat)
                                   compound  experimental.target  quantity.unit  data.value
1  Cc1nc(Nc2ncc(C(=O)Nc3c(C)cccc3Cl)s2)cc(N2CCN(CCO)CC2)n1 [Dasatinib]             CAL-85-1             nM        79.4
2  CC[C@@]1(O)C(=O)OCc2c1cc1n(c2=O)Cc2cc3c(CN(C)C)c(O)ccc3nc2-1 [Topotecan]             CAL-85-1             nM         755
3  COc1ccc(-c2cc3c(C)nc(N)nc3n([C@H]3CC[C@H](OCCO)CC3)c2=O)cn1             CAL-85-1             nM         229
4  Nc1ccccc1NC(=O)c1ccc(CNc2nccc(-c3cccnc3)n2)cc1 [Mocetinostat]             CAL-85-1             nM        2710
5  Cn1cc(CNCC2CCN(c3ncc(C(=O)NO)cn3)CC2)c2ccccc21 [Quisinostat]             CAL-85-1             nM        34.1

# ---- query compound ----
query: Record request: EC50, CellTiter-Glo value, item Cc1c(CN2CCN(C(=O)[C@H](C)O)CC2)sc2c(N3CCOCC3)nc(-c3cnc(N)nc3)nc12 [GDC-0980]
result: 628

---

Tested on: HCC1937
PROTOCOL_SUMMARY: normalised response (% of control), CellTox Green; higher = less cell death (100 = DMSO, 0 = benzethonium chloride kill control)
STATED_CONDITIONS: incubation time: 72 h
ENDPOINT_NAME: normalised response (%)
Respond numerically; units are % and should not be typed.

Below, 3 compounds whose answers are already recorded.
> print(dat)
                                   compound  quantity.unit  data.value
1  Cc1ccc(Nc2nccc(N(C)c3ccc4c(C)n(C)nc4c3)n2)cc1S(N)(=O)=O [Pazopanib] (100 nM)              %        66.2
2  CC(=O)OC[C@H]1O[C@@H]([S-])[C@H](OC(C)=O)[C@@H](OC(C)=O)[C@@H]1OC(C)=O.CCP(CC)CC.[Au+] [Auranofin] (2500 nM)              %        1.35
3  C[C@]12C=CC(=O)C=C1CC[C@@H]1[C@@H]2[C@@H](O)C[C@@]2(C)[C@H]1CC[C@]2(O)C(=O)CO [Prednisolone] (100 nM)              %         115

query: Record request: normalised response value, item Cc1cccc(-c2nn3c(c2-c2ccnc4ccc(C(N)=O)cc24)CCC3)n1 [Galunisertib] (100 nM)
result: 93.8

---

Test system: DU-4475
PROTOCOL_SUMMARY: normalised response (% of control), CellTiter-Glo; higher = more viable cells (100 = DMSO, 0 = benzethonium chloride kill control)
STATED_CONDITIONS: incubation time: 72 h
Let's look at some compounds and their measured normalised response.
Respond numerically; units are % and should not be typed.

COMPOUND	ENDPOINT_NAME	DATA_VALUE
CC[C@@]1(O)C(=O)OCc2c1cc1n(c2=O)Cc2cc3c(CN(C)C)c(O)ccc3nc2-1 [Topotecan] (100 nM)	normalised response	77.9
c1cc(CN2CCCNCCNCCCNCC2)ccc1CN1CCCNCCNCCCNCC1 [Plerixafor] (100 nM)	normalised response	88.1
CS(=O)(=O)N1CCN(Cc2cc3nc(-c4cccc5[nH]ncc45)nc(N4CCOCC4)c3s2)CC1 [Pictilisib] (100 nM)	normalised response	92
COc1ccc(-c2cc3c(C)nc(N)nc3n([C@H]3CC[C@H](OCCO)CC3)c2=O)cn1 (100 nM)	normalised response	83.2
Nc1cccc2c1CN(C1CCC(=O)NC1=O)C2=O (stereo not drawn) [Lenalidomide] (100 nM)	normalised response	104
Cc1c(Cn2c(C)nc3c(C(=O)O)cc(N4CCOCC4)cc32)cccc1C(F)(F)F (100 nM)	normalised response	103
CCC/C=C/C=C/C(=O)O[C@H]1/C(=C/C(=O)OC)C[C@H]2C[C@H]([C@@H](C)O)OC(=O)C[C@H](O)C[C@@H]3C[C@H](OC(C)=O)C(C)(C)[C@](O)(C[C@@H]4C/C(=C/C(=O)OC)C[C@H](/C=C/C(C)(C)[C@]1(O)O2)O4)O3 [Bryostatin 1] (1 nM)	normalised response	91.6
CNC(=O)c1cc(Oc2ccc(NC(=O)Nc3ccc(Cl)c(C(F)(F)F)c3)cc2)ccn1 [Sorafenib] (10 nM)	normalised response	101

query: Record request: normalised response value, item Cn1cc(CNCC2CCN(c3ncc(C(=O)NO)cn3)CC2)c2ccccc21 [Quisinostat] (10 nM)
result: 83.9

query: Record request: normalised response value, item Nc1ccccc1NC(=O)c1ccc(CNc2nccc(-c3cccnc3)n2)cc1 [Mocetinostat] (100 nM)
result: 107

query: Record request: normalised response value, item Cc1cccc(-c2nn3c(c2-c2ccnc4ccc(C(N)=O)cc24)CCC3)n1 [Galunisertib] (10 nM)
result: 108

query: Record request: normalised response value, item Cc1nc(Nc2ncc(C(=O)Nc3c(C)cccc3Cl)s2)cc(N2CCN(CCO)CC2)n1 [Dasatinib] (10 nM)
result: 99.4

query: Record request: normalised response value, item CO[C@@H](C(=O)N1Cc2[nH]nc(NC(=O)c3ccc(N4CCN(C)CC4)cc3)c2C1)c1ccccc1 [Danusertib] (100 nM)
result: 100
